- System: SK-MEL-5 melanoma
- assay: NCI tumour cell line growth inhibition, 48 h; in the data active = GI50 below about 0.43 µM; inactive = the rest
The reply should name one outcome from 1.0 (active), 0.0 (inactive)

Worked set:
QUERY: Identify the outcome logged in this assay for the compound shown: "O=C(O)c1ccc2c(c1)CCCC(c1ccc(Cl)cc1Cl)=C2c1ccc(O[C@H]2CCN(CCCF)C2)cc1"
RESULT: 0.0

QUERY: Identify the outcome logged in this assay for the compound shown: "CNCCn1c(=O)c2cc(OC)c(OC)cc2c2ccc3cc4c(cc3c21)OCO4"
RESULT: 1.0

More entries:
QUERY: Identify the outcome logged in this assay for the compound shown: "Nc1ccccc1C#C/C=C\C#Cc1ccccc1"
RESULT: 0.0

QUERY: Identify the outcome logged in this assay for the compound shown: Fc1cc2[nH]ncc2c2c3c(c(-c4cn[nH]c4C(F)(F)F)nc12)C1CCC3C1 (stereo not given)
RESULT: 0.0

QUERY: Identify the outcome logged in this assay for the compound shown: "CCCOc1ccc2nc(NC(=O)OC)[nH]c2c1"
RESULT: 1.0

QUERY: Identify the outcome logged in this assay for the compound shown: "CCOc1cccc(/C=N/NC(=O)C(=O)Nc2cccc(C(F)(F)F)c2)c1O"
RESULT: 0.0

QUERY: Identify the outcome logged in this assay for the compound shown: "COc1cc(C(=O)Nc2cc3c(cc2Oc2cc(C)cc(C)c2)C(=O)N(C)[C@@H](CC(=O)N(C)O)C(=O)N3)c(Br)c(OC)c1OC"
RESULT: 1.0

QUERY: Identify the outcome logged in this assay for the compound shown: "Cc1cc(Cl)ccc1Nc1nc(C(F)(F)F)ccc1C(=O)N/N=C/c1ccc([N+](=O)[O-])cc1"
RESULT: 0.0

QUERY: Identify the outcome logged in this assay for the compound shown: "COc1ccc2cc(-c3c(-c4ccncc4)nc(-c4ccc(S(C)(=O)=O)cc4C)n3C)ccc2c1"
RESULT: 0.0

QUERY: Identify the outcome logged in this assay for the compound shown: "Cc1ccc(-c2csc(NC(=O)CN3CCN(c4cc5c(cc4F)c(=O)c(C(=O)O)cn5C4CC4)CC3)n2)cc1"
RESULT: 0.0

QUERY: Identify the outcome logged in this assay for the compound shown: "COc1ccc(Cn2cc3c(c2)-c2oncc2CC3)cc1"
RESULT: 0.0

QUERY: Identify the outcome logged in this assay for the compound shown: Cn1c2c(c3ccc(Cl)c(Cl)c31)C(C#N)C1(CCNCC1)NC2=O (stereo not given)
RESULT: 0.0

----------
- Tested on: MDA-N
- assay: NCI tumour cell line growth inhibition, 48 h
As shown below, each of these compounds has a reported TGI value.

Answered cases to consult:
QUERY: Please list TGI recorded for the compound COc1ccccc1C1Nn2c(nc3ccccc3c2=O)N1c1ccc(C)cc1 (configuration not stated)
RESULT: 20.9 µM

QUERY: Please list TGI recorded for the compound "C=C1OC(c2ccccc2NC)=NC12CCCCC2"
RESULT: > 100 µM

QUERY: Please list TGI recorded for the compound CN1C(=O)N(C)C(O)C(Cl)(Br)C1=O (configuration not stated)
RESULT: > 100 µM

More entries:
QUERY: Please list TGI recorded for the compound "C[C@]12CCC(=O)[C@@H](CCC3=CC(=O)C=CC3=O)[C@@H]1CCC2=O"
RESULT: > 52.8 µM

QUERY: Please list TGI recorded for the compound CC(CCC(=O)O)C(=O)O (configuration not stated)
RESULT: > 100 µM

QUERY: Please list TGI recorded for the compound "O=C(CCc1cc(O)cc(O)c1)NCCCNC(=O)CCc1cc(O)cc(O)c1"
RESULT: > 100 µM

QUERY: Please list TGI recorded for the compound "CCN(CC)C(=S)SC"
RESULT: > 100 µM

QUERY: Please list TGI recorded for the compound CCc1c(CNc2ccc(C(=O)NC(CC(=O)O)C(=O)O)cc2)ccc2nc(N)nc(N)c12 (configuration not stated)
RESULT: > 1000 µM

QUERY: Please list TGI recorded for the compound Nc1ccc(C(=O)CC(N)C(=O)O)cc1O (configuration not stated)
RESULT: > 100 µM

QUERY: Please list TGI recorded for the compound "O=C1N=C2SC(=S)NC(=S)N2NC12c1ccccc1-c1ccccc12"
RESULT: > 10 µM

QUERY: Please list TGI recorded for the compound "O=[N+]([O-])c1ccc(NC(=S)N=Nc2c(O)[nH]c3ccc([N+](=O)[O-])cc23)cc1"
RESULT: 41.7 µM

QUERY: Please list TGI recorded for the compound NC(=O)c1csc(C2(O)COC(CO)C2O)n1 (configuration not stated)
RESULT: > 100 µM
